The reported numbers originate from patent US20260297060A1.

method-summary: Example 6 pharmacokinetics assay for PKPD study (plasma, tumor, liver)
Format: in vivo, BALB/c nude mice
assay-conditions: mouse, tumor, po; 35 mg/kg, single dose; 12 h; read-out: Concentration in Tumor (mean ± SEM)
quantity-kind: concentration at 12 h (ng/g)
Give bare numbers, in ng/g.

Enquiry: So what's the measured concentration at 12 h for this one? COC(=O)N[C@@H](C)CNc1nccc(-c2cn(C(C)C)nc2-c2cc(Cl)cc(NS(C)(=O)=O)c2F)n1 [Encorafenib, encorafenib, reference compound]
Return: 18.1

----------
method-summary: Pharmacokinetics in female BALB/c nude mice bearing A375 xenografts, 1 day dosing (PK and PD study): plasma, tumor and brain concentrations, AUC
Type: in vivo
assay-conditions: mouse, plasma, po, 2 mg/kg, 2 mg/kg p.o. TID × 1 day; post 1st dose; 8 h; read-out: Mean Concentration in Plasma ± SEM
quantity-kind: concentration at 8 h (ng/mL)
Answers are plain numbers, in ng/mL.

Enquiry: Need concentration at 8 h of CCN(C)S(=O)(=O)Nc1ccc(F)c(Oc2ccc3ncn([C@H]4COC5(CCN(C6CC7(C6)CN(c6cc8c(cc6F)c(N6CCC(=O)NC6=O)nn8C)C7)CC5)C4)c(=O)c3c2)c1C#N , thanks.
Return: 283

----------
measurement-target: BRAF V600E (Homo sapiens, UniProt P15056+Q96SW2, V600E)
Construct: knock-in of the HiBiT tag to the endogenous BRAF V600E locus; host or cells: A375.10 (A375 clonal line, CRISPR HiBiT knock-in at the endogenous BRAF V600E locus)
Sequence (P15056 whole entry V600E): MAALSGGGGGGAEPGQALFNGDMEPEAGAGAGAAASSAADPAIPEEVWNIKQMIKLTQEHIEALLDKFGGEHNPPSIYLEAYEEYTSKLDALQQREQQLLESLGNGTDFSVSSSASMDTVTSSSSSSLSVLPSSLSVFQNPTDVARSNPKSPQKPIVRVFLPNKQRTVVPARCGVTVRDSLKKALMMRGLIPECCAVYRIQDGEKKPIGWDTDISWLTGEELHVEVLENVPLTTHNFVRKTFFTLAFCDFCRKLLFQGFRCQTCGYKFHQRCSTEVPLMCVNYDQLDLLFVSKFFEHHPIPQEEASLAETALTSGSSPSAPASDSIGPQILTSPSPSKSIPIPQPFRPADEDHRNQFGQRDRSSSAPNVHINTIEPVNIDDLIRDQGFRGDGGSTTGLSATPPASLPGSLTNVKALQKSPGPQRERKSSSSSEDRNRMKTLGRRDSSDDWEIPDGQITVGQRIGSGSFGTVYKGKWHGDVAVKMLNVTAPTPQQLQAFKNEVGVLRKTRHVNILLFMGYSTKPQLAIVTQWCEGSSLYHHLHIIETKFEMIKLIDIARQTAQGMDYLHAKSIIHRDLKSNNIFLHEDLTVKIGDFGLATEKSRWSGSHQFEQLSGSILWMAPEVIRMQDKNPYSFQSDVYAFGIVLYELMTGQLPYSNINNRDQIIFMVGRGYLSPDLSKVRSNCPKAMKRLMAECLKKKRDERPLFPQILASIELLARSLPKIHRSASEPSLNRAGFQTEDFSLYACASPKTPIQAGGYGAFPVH
Sequence (Q96SW2 whole entry): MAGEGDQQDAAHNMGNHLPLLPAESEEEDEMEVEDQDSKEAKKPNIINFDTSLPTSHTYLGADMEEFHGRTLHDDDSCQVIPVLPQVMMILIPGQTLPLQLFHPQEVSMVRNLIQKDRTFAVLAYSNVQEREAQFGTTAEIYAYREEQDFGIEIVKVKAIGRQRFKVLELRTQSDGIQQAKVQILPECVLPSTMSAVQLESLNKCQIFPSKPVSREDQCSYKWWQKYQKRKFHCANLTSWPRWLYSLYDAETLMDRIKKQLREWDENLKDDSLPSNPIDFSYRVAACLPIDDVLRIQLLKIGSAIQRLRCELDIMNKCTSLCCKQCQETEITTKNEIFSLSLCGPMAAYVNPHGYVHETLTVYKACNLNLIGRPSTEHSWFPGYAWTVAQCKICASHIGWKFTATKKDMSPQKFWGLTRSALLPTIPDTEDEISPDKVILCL
Sequence (Q16531 whole entry partner): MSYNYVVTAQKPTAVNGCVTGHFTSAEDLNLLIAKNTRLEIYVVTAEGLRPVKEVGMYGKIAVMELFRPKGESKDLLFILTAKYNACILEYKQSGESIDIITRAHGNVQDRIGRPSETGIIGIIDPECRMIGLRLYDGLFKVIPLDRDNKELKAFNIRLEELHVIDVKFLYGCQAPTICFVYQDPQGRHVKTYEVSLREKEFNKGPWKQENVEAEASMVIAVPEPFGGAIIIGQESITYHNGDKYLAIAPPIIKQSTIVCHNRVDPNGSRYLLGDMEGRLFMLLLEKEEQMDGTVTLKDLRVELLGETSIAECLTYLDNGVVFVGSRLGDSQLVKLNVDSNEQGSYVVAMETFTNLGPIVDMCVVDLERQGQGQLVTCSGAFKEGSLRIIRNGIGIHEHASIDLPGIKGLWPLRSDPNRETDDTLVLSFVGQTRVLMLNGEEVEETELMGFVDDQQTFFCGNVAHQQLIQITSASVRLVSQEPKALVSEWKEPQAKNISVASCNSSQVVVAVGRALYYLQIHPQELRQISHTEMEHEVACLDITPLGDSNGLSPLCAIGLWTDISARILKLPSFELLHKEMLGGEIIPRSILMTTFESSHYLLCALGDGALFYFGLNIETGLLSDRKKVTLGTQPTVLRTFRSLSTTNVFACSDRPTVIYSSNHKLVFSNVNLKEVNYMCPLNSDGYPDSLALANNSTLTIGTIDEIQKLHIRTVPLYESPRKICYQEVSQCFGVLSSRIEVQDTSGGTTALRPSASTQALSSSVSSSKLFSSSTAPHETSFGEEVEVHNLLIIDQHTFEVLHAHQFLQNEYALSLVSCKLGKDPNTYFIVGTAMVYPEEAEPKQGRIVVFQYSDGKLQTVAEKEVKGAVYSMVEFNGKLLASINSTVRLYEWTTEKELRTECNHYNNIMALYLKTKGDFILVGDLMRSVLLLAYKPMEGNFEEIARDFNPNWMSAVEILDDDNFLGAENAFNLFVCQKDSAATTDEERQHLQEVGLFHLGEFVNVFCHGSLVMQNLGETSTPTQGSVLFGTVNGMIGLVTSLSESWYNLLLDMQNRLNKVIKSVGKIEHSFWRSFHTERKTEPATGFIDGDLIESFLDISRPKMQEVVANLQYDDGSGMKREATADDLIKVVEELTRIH
method-summary: BRAF V600E HiBiT Degradation Assay
Type: cell-based
assay-conditions: A375.10 cells, BRAF V600E, 6 hours; residual protein remaining; read-out: HiBiT-Degradation A375.10 BRAF 6 hours Emax
Method: Compounds of this invention were tested for degradation of mutant BRAF V600E using the HiBiT assay, a luminescence-based assay for quantification of cellular protein levels using the Nano-Glo® HiBiT Lytic Detection System (Catalog No. N3050, Promega, Madison, WI USA). […] Data were analyzed with a 4-parameter logistic fit to generate sigmoidal dose-response curves. […]
Please go through the items and note down their Emax.

Before answering, review these 4 worked examples.
>>> result("CCN(C)S(=O)(=O)Nc1ccc(F)c(Oc2ccc3ncn(CC4CCN(C5CCC(c6cc7c(cc6F)c(N6CCC(=O)NC6=O)nn7C)CC5)CC4)c(=O)c3c2)c1C#N (single isomer, unassigned)")
"< 50%"
>>> result("CCN(C)S(=O)(=O)Nc1ccc(F)c(Oc2ccc3ncn([C@H]4COC5(CCN(C6CCC(c7ccc(NC8CCC(=O)NC8=O)cc7F)CC6)CC5)C4)c(=O)c3c2)c1F (single isomer, unassigned)")
"< 50%"
>>> result("CCN(C)S(=O)(=O)Nc1ccc(F)c(Oc2ccc3ncn(C4CC5(CCN(C6CCN(c7cc8c(cc7F)c(N7CCC(=O)NC7=O)nn8C)CC6)CC5)C4)c(=O)c3c2)c1C#N")
"< 50%"
>>> result("CC(C)S(=O)(=O)Nc1ccc(F)c(Oc2ccc3ncn([C@H]4COC5(CCN(C6CCC(c7cc8c(cc7F)c(N7CCC(=O)NC7=O)nn8C)CC6)CC5)C4)c(=O)c3c2)c1C#N (single isomer, unassigned)")
"< 50%"

Enquiry: GET /values?readout=Emax&item= CN(CCO)S(=O)(=O)Nc1ccc(F)c(Oc2ccc3ncn(C4CC5(CCN(C6CC7(C6)CN(c6cc8c(cc6F)c(N6CCC(=O)NC6=O)nn8C)C7)CC5)C4)c(=O)c3c2)c1C#N (centres unmarked)
Return: < 50%
